B1: MATN2 (parent)
chain: TDDSYSCHCLKGFTLNPDKKTCRR

Variants of: B1
Experiment: protein stability index of a GFP-peptide fusion (GPS, HEK-293T) (PSI 1-6); higher = more stable;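 further: lentivirally expressed fusions sorted by FACS into six bins by GFP to DsRed ratio, PSI derived from sequencing read proportions per bin multiplied by bin number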
Details: c terminus: a fixed tail appended
I'd appreciate it if you could supply protein stability index values for the items below.
Give bare numbers.

S6N	1.93
C9W	3.79
R24H	4.06
C22D	2.69
D3R	2.2

Lab note: each variant below needs its protein stability index filled in.
1. K19I
2. G12L
3. C22P
4. H8E
5. L10I
6. C7S
7. D3T

[reply]
1: 2.01; 2: 2.45; 3: 3; 4: 2.84; 5: 2.15; 6: 4.54; 7: 2.01

Lab note: each variant below needs its protein stability index filled in.
1. D2M
2. P17A

[reply]
1. 2.09
2. 2.25

Lab note: each variant below needs its protein stability index filled in.
1. S4I
2. S4R
3. R24G
4. T21N
5. R23Y
6. Y5S
7. D18M
8. K20G

[reply]
1: 2.87; 2: 2.03; 3: 3.12; 4: 2.32; 5: 2.2; 6: 2.66; 7: 2.48; 8: 2.09

Lab note: each variant below needs its protein stability index filled in.
1. F13V
2. S4V
3. H8Y

[reply]
1. 2.21
2. 2.22
3. 2.71

Cited source: the supplement of paper PMC10567573
